condition: in cyclohexane, 310.65 K

[
  {
    "molecular.string": "CCOC(=O)Cc1c(C(=O)OCC)sc(N(CC(=O)OCC)CC(=O)OCC)c1C#N",
    "solubility (mole fraction)": 0.000324
  }
]

====

condition: in acetonitrile, 285.65 K
reported.property: solubility (mole fraction)

[
  {
    "molecular.string": "CCOC(=O)Cc1c(C(=O)OCC)sc(N(CC(=O)OCC)CC(=O)OCC)c1C#N",
    "recorded.value": 0.0211
  }
]

====

condition: in ethyl acetate, 308.15 K

[
  {
    "molecular.string": "CCOC(=O)Cc1c(C(=O)OCC)sc(N(CC(=O)OCC)CC(=O)OCC)c1C#N",
    "solubility (mole fraction)": 0.083
  }
]
